- Read-out: X-box binding protein 1 (XBP1), XBP1 (gene 7494)
- METHOD SUMMARY: LTEA_HepaRG_XBP1: Life Technologies and Expression Analysis (LTEA) Assay for X-box binding protein 1 (XBP1) using HepaRG (AID 2283540)
- SETTINGS: mRNA level, 48 h; actives raise or lower the signal
Active and inactive are the calls of the source. The calls were made as follows: active = hit-call score of the fitted dose curve at least 0.9, where 1 is the maximum; inactive = score below 0.9.
Select the matching outcome among active, inactive

Query: Recorded test call requested for COc1cc(OC)nc(Sc2cccc(Cl)c2C(=O)O)n1
Result: inactive

Query: Repeat for the following molecule: CCc1cccc(CC)c1N(COC)C(=O)CCl
Result: inactive

Query: Cool, now CCOP(=O)(OCC)Oc1cc(C)nc(C(C)C)n1
Result: inactive

Query: Request: CCCCOC(=O)c1ccccc1C(=O)O
Result: inactive

Query: What do we get for C[Si](Cn1cncn1)(c1ccc(F)cc1)c1ccc(F)cc1 ?
Result: active

Query: And what about the molecule CSC1=N[C@@](C)(c2ccccc2)C(=O)N1Nc1ccccc1 ?
Result: inactive

Query: Can you check CCOP(=S)(OCC)OC(Cl)C(Cl)(Cl)Cl (centres undefined) next?
Result: inactive

Query: Entry O=[N+]([O-])c1cc(C(F)(F)F)c(Cl)c([N+](=O)[O-])c1Nc1ncc(C(F)(F)F)cc1Cl please
Result: inactive

Query: For CC(C)=CC1C(C(=O)OCN2C(=O)C3=C(CCCC3)C2=O)C1(C)C (centres undefined) then?
Result: inactive

Query: And then CN(C)NC(=O)CCC(=O)O , what is it?
Result: inactive

Query: Same question for CCOP(=S)(OCC)Oc1cc(C)nc(C(C)C)n1 please.
Result: inactive

Query: Please answer likewise for CCOP(=S)(OCC)Oc1ccc2c(C)c(Cl)c(=O)oc2c1
Result: inactive

Query: // repeat for FC(F)C(F)(F)OCC(Cn1cncn1)c1ccc(Cl)cc1Cl (centres undefined) and report
Result: active

Query: Another: CN(C)[C@@H]1C(=O)C(C(N)=O)=C(O)[C@@]2(O)C(=O)C3=C(O)c4c(O)cccc4[C@@](C)(O)[C@H]3[C@H](O)[C@@H]12
Result: inactive

Query: Now consider CON=C(C(=O)OC)c1ccccc1CON=C(C)c1cccc(C(F)(F)F)c1 and answer again.
Result: inactive

Query: Next entry: N#CSCSC#N
Result: inactive

Query: What about C[N+]1(C)CCCCC1 ?
Result: inactive

Query: Thanks! And CCCCN(CC)c1c([N+](=O)[O-])cc(C(F)(F)F)cc1[N+](=O)[O-] ?
Result: inactive

Query: Could you do the same for CCc1cccc(C)c1N(C(=O)CCl)C(C)COC (centres undefined) , please?
Result: inactive

Query: Again, but for C=C(C)[C@H]1Cc2c(ccc3c2O[C@@H]2COc4cc(OC)c(OC)cc4[C@@H]2C3=O)O1
Result: inactive

Query: Ok, now C#CC(C)(C)NC(=O)c1cc(Cl)cc(Cl)c1
Result: inactive

Query: Would you mind doing Cc1cc(C2CC2)nc(Nc2ccccc2)n1 as well?
Result: inactive

Query: // same read-out, input: CNc1cnn(-c2cccc(C(F)(F)F)c2)c(=O)c1Cl
Result: inactive

Query: Can you handle CCOC(=O)CC(SP(=O)(OC)OC)C(=O)OCC (centres undefined) next?
Result: inactive
